Origin of the recorded values: PubChem BioAssay (NCI)

- Tested on: CCRF-CEM leukemia
- Assay Remarks: NCI tumour cell line growth inhibition, 48 h
Give measured TGI for each item. Keep answers brief.
Answers are plain numbers, in µM.

Study these solved cases before continuing.
smiles_record=Cc1cc2c(cc1C)N(C(=O)CCl)CC(=O)N2 reported_property=TGI unit_annotation=µM observed_result=5.49
smiles_record=C[C@H]1[C@H](C)CC[C@]2(CO)CC[C@]3(C)C(=CC[C@@H]4[C@@]5(C)CCCNC(C)(C)[C@@H]5CC[C@]43C)[C@H]12 reported_property=TGI unit_annotation=µM observed_result=3.93
smiles_record=[N-]=[N+]=Nc1ccccc1C(=O)N1C(=O)c2ccccc2C(=O)N(C(=O)c2ccccc2N=[N+]=[N-])c2ccccc21 reported_property=TGI unit_annotation=µM observed_result=84.6
smiles_record=COc1ccc2nc3cccc([N+](=O)[O-])c3c(NCCCCCC(=O)O)c2c1 reported_property=TGI unit_annotation=µM observed_result=0.302
smiles_record=Cn1c(=O)c(Br)c(C=O)n(CCO[N+](=O)[O-])c1=O reported_property=TGI unit_annotation=µM observed_result=5.25

I need TGI for every entry listed below, if you could help.
1. CC(C)(C)OC(=O)N1CCN(CCn2cc(C(F)(F)F)c3c(Cl)ncnc32)CC1
2. CCN(CC)c1c(C(=O)/C=C/c2ccc(OC)cc2)c(-c2ccccc2)nn(C)c1=O
3. CCC[CH2][Sn]1([CH2]CCC)[O]C(=O)c2cccnc2[O]1

Result:
[9.19, 45.6, 3.08]

Problem: Provide TGI, tested on CCRF-CEM leukemia, for COc1cc(O)c2c(=O)cc(-c3ccc(O)cc3O)oc2c1CC=C(C)C .
Result: 63

---

- Tested on: NCI-H522 lung
- Assay Remarks: NCI tumour cell line growth inhibition, 48 h
Reported Property: TGI

Study these solved cases before continuing.
compound=COc1ccc2nc3cccc([N+](=O)[O-])c3c(NCCCCCC(=O)O)c2c1 target_or_system="NCI-H522 lung" reported_property=TGI observed_result="0.101 µM"
compound="Clc1ccc(C2SCc3nc4ccccc4n32)c(Cl)c1 (stereo unspecified)" target_or_system="NCI-H522 lung" reported_property=TGI observed_result="29.9 µM"
compound=CCOC(=O)P(=O)(O)c1ccc(N(C)Cc2ccccc2)cc1 target_or_system="NCI-H522 lung" reported_property=TGI observed_result="> 100 µM"
compound=C=CCNC(=O)NC(=O)CSC1=NNC2(C(=O)N1)c1ccccc1-c1ccccc12 target_or_system="NCI-H522 lung" reported_property=TGI observed_result="> 10 µM"
compound=C[C@H]1[C@H](C)CC[C@]2(CO)CC[C@]3(C)C(=CC[C@@H]4[C@@]5(C)CCCNC(C)(C)[C@@H]5CC[C@]43C)[C@H]12 target_or_system="NCI-H522 lung" reported_property=TGI observed_result="3.32 µM"
compound="CCOc1cc(NC(C)=O)ccc1C(=O)NN1C(=O)C(Cl)C1c1ccccc1 (stereo unspecified)" target_or_system="NCI-H522 lung" reported_property=TGI observed_result="5.82 µM"
compound=CN(O)c1nc(N(C)O)nc(N2CCOCC2)n1 target_or_system="NCI-H522 lung" reported_property=TGI observed_result="> 100 µM"
compound="CCCCOC(=O)C1C2CCC(O2)C1C(=O)OCCCC (stereo unspecified)" target_or_system="NCI-H522 lung" reported_property=TGI observed_result="> 100 µM"

I need TGI for every entry listed below, if you could help.
1. O=c1[nH]c2cc(Cl)ccc2nc1/C(=N\O)C(O)c1cccc([N+](=O)[O-])c1 (stereo unspecified)
2. COc1ccc2c(c1)c(=O)oc1cc(OC/C(C)=N\O)ccc12
3. COC(=O)N/N=C(\Cc1ccccc1)CN(C)C

Result:
1. > 100 µM
2. > 100 µM
3. > 100 µM
